Would you kindly list pIC50 for each of these compounds?
Biological target: hOAT3 (Homo sapiens, UniProt Q8TCC7)
Sequence (Q8TCC7 1-542): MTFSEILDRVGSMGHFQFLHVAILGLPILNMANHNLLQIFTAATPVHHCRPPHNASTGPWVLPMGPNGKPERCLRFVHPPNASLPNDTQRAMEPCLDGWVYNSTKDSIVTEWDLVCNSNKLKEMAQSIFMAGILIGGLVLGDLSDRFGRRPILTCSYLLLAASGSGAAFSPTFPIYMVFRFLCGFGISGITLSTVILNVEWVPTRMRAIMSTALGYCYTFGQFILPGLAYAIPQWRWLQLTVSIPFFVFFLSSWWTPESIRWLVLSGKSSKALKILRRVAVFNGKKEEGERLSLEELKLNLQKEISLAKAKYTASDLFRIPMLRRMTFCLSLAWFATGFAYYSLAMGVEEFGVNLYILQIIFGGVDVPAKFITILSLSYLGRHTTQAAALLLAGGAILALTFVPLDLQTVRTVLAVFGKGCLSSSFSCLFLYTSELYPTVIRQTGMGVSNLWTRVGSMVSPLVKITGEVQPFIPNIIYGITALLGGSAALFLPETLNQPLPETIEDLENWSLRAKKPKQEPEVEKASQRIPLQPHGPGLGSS
Assay: Inhibition of 3H-ES uptake in S2-hOAT3 cells
Hey, just a heads up that pIC50 is the negative log base 10 of the concentration in molar.

Qu. Give pIC50 for the following compound: "CC(C)=CCOc1c2occc2cc2ccc(=O)oc12"
Ans. 5.56

Qu. Give pIC50 for the following compound: "CC(C)=CCOc1c2ccoc2cc2oc(=O)ccc12"
Ans. 4.93
